These measurements were taken from patent US9771361B2.

test system: A/Weiss/43; format: cell-based, influenza A virus; conditions: read-out: Cell Protection Assay EC50 ± SD Comp (1)
Endpoint Name: pEC50
Field pEC50 (float): negative decimal logarithm of the concentration in molar.

Short answer for O=C(O)[C@H]1C2CCC(CC2)C1Nc1nc(-c2c[nH]c3ncc(F)cc23)ncc1F (stereo partly shown) : pEC50 was 9.51

---

test system: A/Mexico/4108/2009; assay type: cell-based, influenza A virus; settings: read-out: Cell Protection Assay EC50 ± SD Comp (1)
Endpoint Name: pEC50
Field pEC50 (float): negative decimal logarithm of the concentration in molar.

Short answer for O=C(O)[C@H]1C2CCC(CC2)C1Nc1nc(-c2c[nH]c3ncc(F)cc23)ncc1F (stereo partly shown) [Compound (1)] : pEC50 was 8.57
